Molecular target: mGlyT-1b (Mus musculus)
Construct: host or cells: Flp-in-CHO
Sequence (P28571 1-651 isoform P28571-2): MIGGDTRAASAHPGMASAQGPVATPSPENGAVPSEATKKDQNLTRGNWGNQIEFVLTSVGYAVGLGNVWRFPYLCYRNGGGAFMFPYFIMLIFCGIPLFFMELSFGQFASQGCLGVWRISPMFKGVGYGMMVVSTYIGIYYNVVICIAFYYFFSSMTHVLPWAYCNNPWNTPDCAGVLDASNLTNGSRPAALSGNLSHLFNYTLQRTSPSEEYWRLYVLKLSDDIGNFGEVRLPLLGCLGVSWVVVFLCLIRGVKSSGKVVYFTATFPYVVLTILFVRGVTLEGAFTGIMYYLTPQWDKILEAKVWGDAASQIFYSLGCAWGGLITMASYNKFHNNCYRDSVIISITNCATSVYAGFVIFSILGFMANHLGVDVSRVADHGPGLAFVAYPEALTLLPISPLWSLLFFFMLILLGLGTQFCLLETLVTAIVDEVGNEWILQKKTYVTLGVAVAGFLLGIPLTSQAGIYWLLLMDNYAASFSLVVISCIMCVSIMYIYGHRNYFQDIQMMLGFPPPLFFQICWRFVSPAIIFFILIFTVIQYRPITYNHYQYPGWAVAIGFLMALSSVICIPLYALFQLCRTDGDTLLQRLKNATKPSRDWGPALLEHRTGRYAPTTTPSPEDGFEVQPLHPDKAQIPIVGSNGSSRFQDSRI
Assay: Glycine uptake inhibition assay (mGlyT-1b), [3H]-glycine uptake in Flp-in-CHO cells
Assay type: cell-based
Settings: Flp-in-CHO cells stably transfected with mGlyT1b cDNA, 20 min at 22° C. preincubation
Experimental: Nutrient mixture F-12 (Gibco Life-technologies), fetal bovine serum (FBS) 5%, (Gibco life technologies), Penicillin/Streptomycin 1% (Gibco life technologies), Hygromycin 0.6 mg/ml (Gibco life technologies), Glutamine 1 mM Gibco life technologies) • Uptake buffer (UB): 150 mM NaCl, 10 mM Hepes-Tris, pH 7.4, […], 2.5 mM KCl, 2.5 mM MgSO4, 10 mM (+) D-glucose. • Flp-in™-CHO (Invitrogen Cat n° R758-07) cells stably transfected with mGlyT1b cDNA. Glycine Uptake Inhibition Assay (mGlyT-1b) […]
experimentalReadout: IC50 (µM)

INSERT INTO assay_data (compound, readoutunits, reportedvalue) VALUES
  ('COc1cc(C(F)(F)F)cc(SC)c1C(=O)NC(c1ccccc1)C1(N2CCN(C3CC3)CC2)CCC1 (stereo not shown) [Example 73]', 'µM', 0.0308);

A = COc1cc(C(F)(F)F)cc(SC)c1C(=O)NC(c1ccccc1)C1(N2CCCC2)CCC1 (single isomer, unassigned; (+)) [Example 33]
B = COc1cc(C(F)(F)F)cc(SC)c1C(=O)NC(c1ccccc1)C1(N2CCCC2)CCC1 (single isomer, unassigned; (+)) [Example 32]
C = COc1cc(C(F)(F)F)cc(SC)c1C(=O)NC(c1ccccc1)C1(N2CCOCC2)CCC1 (stereo not shown) [Example 60]
D = Cc1cc(C(F)(F)F)ccc1C(=O)NC(c1ccccc1)C1(N2CCCC2)CCC1 (stereo not shown) [Example 41]
**Query** Exam item: list the entries in increasing order of IC50. // format: requested-order list of labels
**Result** A, D, B, C

a = CSc1cc(C(F)(F)F)cc(O)c1C(=O)NC(c1ccccc1)C1(N2CCCC2)CCC1 (stereo not shown) [Example 69]
b = COc1cc(C(F)(F)F)ccc1C(=O)NC(c1ccccc1)C1(N2CCCC2)CCC1 (stereo not shown) [Example 17]
**Query** Of a versus b , which is the one with smaller reported IC50? Identify your pick by its label.
**Result** a
(a: 0.0095 µM, b: 0.0368 µM)

a = COc1cc(C(F)(F)F)cc(SC)c1C(=O)NC(c1ccccc1)C1(N2CCCC2)CCC1 (stereo not shown) [Example 12]
b = CSc1cc(C(F)(F)F)ccc1C(=O)NC(c1ccccc1)C1(N2CCN(C3CC3)CC2)CCC1 (stereo not shown) [Example 72]
c = CSc1cccc(C(F)(F)F)c1C(=O)NC(c1ccccc1)C1(N2CCCC2)CCC1 (stereo not shown) [Example 13]
**Query** Ascending by IC50, please. API: response body holds the labels in the requested order.
**Result** a, c, b
(a: 0.0112 µM, c: 0.034 µM, b: 0.0494 µM)

I = COc1cc(C(F)(F)F)cc(SC)c1C(=O)NC(c1cccc(F)c1)C1(N2CCCC2)CCC1 (stereo not shown) [Example 56]
II = Cc1cc(Cl)ccc1C(=O)NC(c1ccccc1)C1(N2CCCC2)CCC1 (stereo not shown) [Example 63]
**Query** Between the entries labeled I and II , whose measured IC50 is lower? Refer to your chosen item by its label in the answer.
**Result** I
(I: 0.0135 µM, II: 0.0297 µM)
